- Tested target: C-C chemokine receptor type 2 (Homo sapiens, UniProt P41597)
- Sequence (P41597 whole entry): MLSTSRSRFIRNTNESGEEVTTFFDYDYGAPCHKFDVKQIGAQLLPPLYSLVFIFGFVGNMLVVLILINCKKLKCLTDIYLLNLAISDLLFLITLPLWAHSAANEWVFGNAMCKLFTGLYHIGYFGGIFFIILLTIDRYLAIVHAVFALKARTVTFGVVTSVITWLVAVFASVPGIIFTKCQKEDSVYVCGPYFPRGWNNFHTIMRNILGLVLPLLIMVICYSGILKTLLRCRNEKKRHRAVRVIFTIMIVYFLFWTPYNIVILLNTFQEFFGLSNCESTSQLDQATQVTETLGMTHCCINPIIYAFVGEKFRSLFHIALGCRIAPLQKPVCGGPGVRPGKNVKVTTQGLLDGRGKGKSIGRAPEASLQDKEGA
- Experiment notes: Displacement of [125-I]MCP1 from CCR2 on human PBMC
Readout: pIC50
// pIC50 here means minus log10 of the molar concentration (mol/L)

Compound smiles	Readout number
CCC[C@H](O)[C@H](CNCc1ccc(C)cc1C)NC(=O)CC(=O)Nc1cc(C(F)(F)F)ccc1OC	6.66

Please state recorded pIC50 (tested on C-C chemokine receptor type 2 (Homo sapiens, UniProt P41597)) of CC[C@@H](O)[C@H](CNCc1ccc(C)cc1C)NC(=O)CNC(=O)c1cccc(C(F)(F)F)c1 6.41

Please state recorded pIC50 (tested on C-C chemokine receptor type 2 (Homo sapiens, UniProt P41597)) of CCC[C@H](O)[C@H](CNCc1ccc(C)cc1C)NC(=O)CC(=O)Nc1cccc(C(F)(F)F)c1 7.55

---

- Tested target: C-C chemokine receptor type 5 (Mus musculus, UniProt P51682)
- Sequence (P51682 whole entry): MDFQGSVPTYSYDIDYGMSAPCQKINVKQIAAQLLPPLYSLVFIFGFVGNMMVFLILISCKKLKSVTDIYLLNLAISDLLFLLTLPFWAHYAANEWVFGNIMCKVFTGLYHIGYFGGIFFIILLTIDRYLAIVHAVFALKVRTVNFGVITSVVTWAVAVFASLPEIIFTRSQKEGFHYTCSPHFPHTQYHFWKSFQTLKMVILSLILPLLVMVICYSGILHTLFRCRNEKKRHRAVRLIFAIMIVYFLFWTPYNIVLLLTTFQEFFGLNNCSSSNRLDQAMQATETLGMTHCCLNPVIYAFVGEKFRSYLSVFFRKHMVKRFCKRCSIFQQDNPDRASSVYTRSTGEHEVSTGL
Readout: pIC50
// pIC50 here means minus log10 of the molar concentration (mol/L)

Please state recorded pIC50 (tested on C-C chemokine receptor type 5 (Mus musculus, UniProt P51682)) of CCC[C@H](O)[C@H](CNCc1ccc(C)cc1C)NC(=O)CNC(=O)c1cc(C(F)(F)F)ccc1NC(=O)NCC 7.07

---

- Tested target: C-C chemokine receptor type 2 (Homo sapiens)
- Experiment notes: Displacement of [125-I]MCP1 from CCR2 on human PBMC
pIC50: −log10 of the molar value.
Record rule met whenever pIC50 is at 7 or higher; record rule not met when lower.

Solved cases below.
Compound smiles	Answer label
CCC[C@H](O)[C@H](CNCc1ccc(C)cc1C)N1CC[C@H](NC(=O)c2cc(N)cc(C(F)(F)F)c2)C1=O	rule not met
CCC[C@H](O)[C@H](CNCc1ccc(C)cc1C)NC(=O)CNC(=O)c1cc(C(F)(F)F)ccc1NC(=O)OC(C)(C)C	rule met
CCCNc1cc(NC(=O)CC(=O)N[C@@H](CNCc2ccc(C)cc2C)[C@@H](O)CCC)cc(C(F)(F)F)c1	rule met
CCC[C@H](O)[C@H](CNCc1ccc(C)cc1C)NC(=O)CNC(=O)c1cc(C(F)(F)F)ccc1NC(=O)N1CCC1	rule met
CCC[C@H](O)[C@H](CNCc1ccc(C)cc1C)N1CC[C@@H](NC(=O)c2cc(C(F)(F)F)ccc2NC(=O)OC(C)(C)C)C1=O	rule not met
CCC[C@H](O)[C@H](CNCc1ccc(C)cc1C)NC(=O)CNc1n[nH]c2ccc(C(F)(F)F)cc12	rule met

From here, focus on the item given below.
Determine whether this compound has pIC50 no lower than 7: CCC[C@H](O)[C@H](CNCc1ccc(C)cc1C)NC(=O)CNC(=O)c1cc(C(F)(F)F)ccc1NC(=O)N1CCCC1 rule met

---

- Experiment notes: Clearance in mouse
- Type: ADME, organism-based
- Measurement conditions: in vivo
Readout: clearance

# input compound: CCC[C@H](O)[C@H](CNCc1ccc(C)cc1C)NC(=O)CNC(=O)c1cc(C(F)(F)F)ccc1NC(=O)NCC ; wanted: its clearance 85 mL/min/kg

---

- Experiment notes: Oral bioavailability in mouse
- Format: ADME, organism-based
- Measurement conditions: in vivo
Readout: bioavailability (%)
Express your answer in %, writing the number without its unit.

# input compound: CCC[C@H](O)[C@H](CNCc1ccc(C)cc1C)NC(=O)CNC(=O)c1cc(C(F)(F)F)ccc1NC(=O)NCC ; wanted: its bioavailability 29

---

Documented IC50 across a set of compounds
- Tested target: C-C chemokine receptor type 2 (Homo sapiens)
- Experiment notes: Displacement of [125-I]MCP1 from CCR2 on human PBMC
Express your answer in nM, writing the number without its unit.

Compound smiles	IC50 [nM]
CCCC[C@H](O)[C@H](CNCc1ccc(C)cc1C)NC(=O)CNC(=O)c1cccc(C(F)(F)F)c1	5
CCC[C@H](O)[C@H](CNCc1ccc(C)cc1C)NC(=O)CC(=O)Nc1cc(C(F)(F)F)ccc1N	43
CCCC(O)(CCC)[C@H](CNCc1ccc(C)cc1C)NC(=O)CNC(=O)c1cc(C(F)(F)F)ccc1N	27
CCC[C@H](O)[C@H](CN(Cc1ccc(C)cc1C)C(C)C)NC(=O)CNC(=O)c1cc(C(F)(F)F)ccc1NC(=O)NC(C)C	1700
CC[C@H](O)[C@H](CNCc1ccc(C)cc1C)NC(=O)CNC(=O)c1cc(C(F)(F)F)ccc1N	17
CCC[C@H](O)[C@H](CNCc1ccc(C)cc1C)NC(=O)CC(=O)Nc1cc(NC(=O)OC(C)(C)C)cc(C(F)(F)F)c1	340
CCC[C@H](O)[C@H](CNCc1ccc(C)cc1C)N1CC[C@H](NC(=O)c2cc(C(F)(F)F)ccc2NC(=O)OC(C)(C)C)C1=O	1040
Cc1ccc(CNC[C@H](NC(=O)CNC(=O)c2cccc(C(F)(F)F)c2)[C@@H](O)C(C)C)c(C)c1	65
CCC[C@H](O)[C@H](CNCc1ccc(C)cc1C)NC(=O)CNC(=O)c1cc(C(F)(F)F)ccc1NC(=O)NCC	3.6
CCC[C@H](O)[C@H](CNCc1ccc(C)cc1C)NC(=O)CC(=O)Nc1cc(Br)cc(C(F)(F)F)c1	710

# input compound: Cc1ccc(CNC[C@H](NC(=O)CNC(=O)c2cccc(C(F)(F)F)c2)[C@H](O)C(C)C)c(C)c1 ; wanted: its IC50 100

# input compound: CCC[C@H](O)[C@H](CNCc1ccc(C)cc1C)NC(=O)CC(=O)Nc1cc(C(=O)NCC)cc(C(F)(F)F)c1 ; wanted: its IC50 158

# input compound: CCC[C@H](O)[C@H](CNCc1ccc(C)cc1C)NC(=O)CC(=O)Nc1cc(OC)cc(C(F)(F)F)c1 ; wanted: its IC50 24

# input compound: CCC[C@H](O)[C@H](CNCc1ccc(C)cc1C)NC(=O)Cc1nc2c(C(F)(F)F)cccc2[nH]1 ; wanted: its IC50 49

# input compound: CCC[C@H](O)[C@H](CNCc1ccc(C)cc1C)NC(=O)CNC(=O)c1cc(C(F)(F)F)ccc1NCc1ccccc1 ; wanted: its IC50 9.3

# input compound: Cc1ccc(CNC[C@H](NC(=O)CNC(=O)c2cccc(C(F)(F)F)c2)[C@@H](O)CC(C)(C)C)c(C)c1 ; wanted: its IC50 19

# input compound: CCC[C@H](O)[C@H](CNCc1ccc(C)cc1C)NC(=O)CC(=O)Nc1cc(NC)cc(C(F)(F)F)c1 ; wanted: its IC50 7.1

# input compound: CCC[C@@H](O)[C@H](CNCc1ccc(C)cc1C)NC(=O)CNC(=O)c1cc(C(F)(F)F)ccc1N ; wanted: its IC50 7

# input compound: CCC[C@H](O)[C@H](CNCc1ccc(C)cc1C)NC(=O)CNC(=O)c1cc(C(F)(F)F)ccc1NC(=O)N1CCOCC1 ; wanted: its IC50 3.8

# input compound: CCC[C@H](O)[C@H](CNCc1ccc(C)cc1C)NC(=O)CNC(=O)c1cc(C(F)(F)F)ccc1NC(C)C ; wanted: its IC50 5.3

# input compound: CCC[C@H](O)[C@H](CN(C)Cc1ccc(C)cc1C)NC(=O)CNC(=O)c1cc(C(F)(F)F)ccc1NC(=O)NC(C)C ; wanted: its IC50 440

# input compound: Cc1ccc(CNC[C@H](NC(=O)CNC(=O)c2cc(C(F)(F)F)ccc2N)C2(O)CCCC2)c(C)c1 ; wanted: its IC50 87

# input compound: CCC[C@H](O)[C@H](CNCc1ccc(C)cc1C)NC(=O)CC(=O)Nc1cc(C(F)(F)F)ccc1NC(=O)OC(C)(C)C ; wanted: its IC50 240

# input compound: CCC[C@H](O)[C@H](CNCc1ccc(C)cc1C)NC(=O)CNC(=O)c1cc(C(F)(F)F)ccc1NC(=O)NC ; wanted: its IC50 6.7
